Tested on: H4
Test: Luminescence Cell-Based Dose Response HTS to Identify Activators of 5'UTR Stem-Loop Driven Prion Protein mRNA Translation in H4 Neuroglioblastoma Cells. [Related pubchem assays: 1829 (Project Summary), 1814 (Primary HTS)]
Format: functional
Conditions: Homo sapiens
Activity calls are given as the source filed them.
parameter: EC50

// below: answered molecules
CC(C)c1ccc(NC(=O)C2CC3CCC2C3)cc1 (stereo unspecified)    65.4 µM (active)
CC1(C)CN=C(N(Cc2ccccc2)C(=O)Nc2ccccc2)S1    18.8 µM (active)
CC(=O)c1ccc(S(=O)(=O)N(Cc2cc3cc4c(cc3nc2O)OCCO4)CC2CCCO2)cc1 (stereo unspecified)    26.3 µM (active)
O=C(/C=C/c1ccco1)NC1=NCCS1    < 0.1 µM (active)
COc1cc(/C=N/NC2=NC(=O)C(CC(=O)O)S2)ccc1OCc1cccc(Cl)c1 (stereo unspecified)    19.7 µM (active)

Now for another entry.
[Q] // lookup EC50 | system=H4 | key= `O=c1c2c3c(sc2nc2n1N=C(c1cccs1)CS2)CCCC3`
[A] 0.118 µM (active)

###

Molecular target: Nonstructural protein 1 (Influenza A virus, UniProt Q194T2)
Sequence (Q194T2 whole entry): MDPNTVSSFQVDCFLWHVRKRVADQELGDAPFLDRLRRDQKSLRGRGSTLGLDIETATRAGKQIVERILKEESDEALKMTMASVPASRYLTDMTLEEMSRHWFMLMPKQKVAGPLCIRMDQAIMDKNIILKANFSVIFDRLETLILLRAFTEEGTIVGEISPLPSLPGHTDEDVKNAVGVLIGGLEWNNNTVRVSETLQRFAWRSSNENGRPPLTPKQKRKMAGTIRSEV
Assay type: functional, Influenza A virus (A/California/07/2009(H1N1))
Active and inactive are the calls of the source.
Please respond with reported IC50 for every item in the list.

// below: answered compounds
O=C(CN1CC(=O)Oc2ccccc21)OCC(=O)c1ccc(Br)cc1    1.61 µM (active)
Cc1n[nH]c(=S)n(/N=C/c2ccccn2)c1=O    6.08 µM (active)
CC[n+]1ccc(/C=C/c2ccc(N(C)C)cc2)c2ccccc21    9.07 µM (active)
C=CCn1c(-c2ccc(S(=O)(=O)N3CCOCC3)cc2)cs/c1=N\c1ccccc1    > 100 µM (active)
Nc1nc(-c2ccccn2)nc(N)c1Cc1ccc(Cl)cc1Cl    5.11 µM (active)

Now for another entry.
[Q] // returns reported IC50 for input `Cc1nc(CNS(=O)(=O)c2ccc3ccccc3c2)cs1`
[A] 37.7 µM (active)

###

Target: Replicative DNA helicase DnaB (Mycobacterium tuberculosis, UniProt P9WMR3)
Test: DnaB intein splicing inhibitors, dose response, biochemical, cell-free fluorescence (AID 449749)
Type: functional
Active and inactive are the calls of the source.
Please respond with reported AC50 for every item in the list.

COc1ccccc1/C=C/C1(C(=O)NC2CCCC2)CC(=O)N1c1ccc(F)cc1 (stereo unspecified)    3.57 µM (active)
CCOC(=O)CSc1nc(=O)c(NCC(=O)OC)n[nH]1    12 µM (active)
CC(C)(C)NC(=O)CSc1ncnc2c1nnn2Cc1ccccc1Cl    6.8 µM (active)
COc1cc(C2(c3ccc(O)c(OC)c3)C(=O)Nc3c(C)cc(Br)cc32)ccc1O    5.77 µM (active)
COc1ccc(/C=C2/C(=O)N(c3ccccc3)N=C2C)cc1    4.44 µM (active)

State the recorded AC50 for every item in the following list.
1. CCCCCC(=O)O[C@]1(C(C)=O)CC[C@H]2[C@@H]3CCC4=CC(=O)CC[C@]4(C)[C@H]3CC[C@@]21C [HYDROXYPROGESTERONE CAPROATE]
2. Cc1ccc(-n2nc(C)c3c2OC(N)=C(C#N)C3c2cccs2)cc1 (stereo unspecified)
3. N=C(N)SCc1cn(-c2ccccc2)nc1-c1ccc(Br)cc1
4. C/C(CC(=O)Nc1ccc(F)cc1F)=N\NC(=O)C(=O)N1CCCCC1
5. CC1(C)CC(=O)C(C2(O)C(=O)NC(=O)NC2=O)=C(O)C1
6. O=C(Nc1ncc([N+](=O)[O-])s1)c1ccc2c(c1)OCO2

[A]
1. 11.9 µM (active)
2. 3.81 µM (active)
3. 8.68 µM (active)
4. 5 µM (active)
5. 1.23 µM (active)
6. 21.2 µM (active)
